Values were extracted from paper PMC2853803.

Molecular target: ABCG2 (Homo sapiens, UniProt Q9UNQ0)
Sequence (Q9UNQ0 1-655): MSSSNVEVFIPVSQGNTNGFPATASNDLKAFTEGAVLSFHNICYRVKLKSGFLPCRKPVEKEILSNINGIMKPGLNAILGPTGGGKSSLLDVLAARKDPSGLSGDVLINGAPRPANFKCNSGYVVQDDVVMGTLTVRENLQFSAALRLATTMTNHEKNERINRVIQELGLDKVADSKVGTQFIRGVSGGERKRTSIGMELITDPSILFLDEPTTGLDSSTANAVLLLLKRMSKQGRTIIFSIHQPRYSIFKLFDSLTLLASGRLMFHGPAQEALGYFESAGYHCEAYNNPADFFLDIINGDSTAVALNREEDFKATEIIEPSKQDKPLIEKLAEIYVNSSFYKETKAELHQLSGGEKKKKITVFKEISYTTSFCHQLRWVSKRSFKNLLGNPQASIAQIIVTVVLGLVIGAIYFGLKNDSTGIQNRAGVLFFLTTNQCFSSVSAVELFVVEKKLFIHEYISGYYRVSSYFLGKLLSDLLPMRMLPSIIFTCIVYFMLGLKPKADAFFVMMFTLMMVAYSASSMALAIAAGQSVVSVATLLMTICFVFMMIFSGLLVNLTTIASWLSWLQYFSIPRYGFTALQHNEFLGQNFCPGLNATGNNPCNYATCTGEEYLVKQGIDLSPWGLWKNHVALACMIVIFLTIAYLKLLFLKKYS
Experiment: Screening assay: pheophorbide a
Type: cell-based
property: IC50 (µM)
Field format: number, assumed µM, no unit text.

get_value(item= CO/C(=C\c1ccc(O)cc1)C(=O)N/C=C/c1ccc(OC)c(Br)c1 [Botryllamide D, botryllamide D] , readout=IC50) returns 16.4
